These entries and their values trace back to PubChem BioAssay AID743234.

- Tested Target: UniProt Q96RJ0
- Sequence (Q96RJ0 whole entry, looked up): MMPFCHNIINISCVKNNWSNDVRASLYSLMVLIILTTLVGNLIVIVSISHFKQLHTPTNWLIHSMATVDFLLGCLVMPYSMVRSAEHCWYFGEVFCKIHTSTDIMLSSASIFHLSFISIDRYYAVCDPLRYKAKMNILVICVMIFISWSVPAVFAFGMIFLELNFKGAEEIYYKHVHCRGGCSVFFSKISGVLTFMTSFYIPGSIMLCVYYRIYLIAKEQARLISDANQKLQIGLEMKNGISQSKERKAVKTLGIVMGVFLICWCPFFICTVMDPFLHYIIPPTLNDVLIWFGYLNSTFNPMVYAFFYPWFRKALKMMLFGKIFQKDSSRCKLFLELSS
- Assay Summary: TAAR1 antagonists in human receptor cells, late-stage follow-up, cell-based, fluorescence (AID 743234)
- Protocol Conditions: TAAR1-expressing cells, fluorescence antagonist readout
Calls of active or inactive are those of the source. How the calls were made is not given here.
Outcomes: active, inactive

compound=COc1cccc(-c2nn(-c3ccccc3)cc2C(=O)Nc2nccs2)c1 assigned_category=inactive
compound=COc1cc(NC(=O)c2cc3ccccc3o2)c(OC)cc1Cl assigned_category=inactive
compound=O=C(NCCn1cc(SCc2ccccc2F)c2ccccc21)c1c(F)cccc1F assigned_category=inactive
compound=Cc1ccc(CSCC(=O)Nc2cc(S(=O)(=O)N3CCOCC3)ccc2OCC(F)(F)F)cc1 assigned_category=active
compound="Cc1cccc(C(C#N)c2nc3ccccc3nc2C(F)(F)F)c1 (stereo not given)" assigned_category=active
